Species: Rattus norvegicus
Experiment: Open TG-GATES - Regimen: Daily Repeat
Type: toxicity, organism-based, Sprague-Dawley
Set-up: regimen Daily Repeat, gender Male, age 6 weeks
Details: in vivo, po, 100 mg/kg, […], tissue Blood, route gavage, dose level Low, time 14 day
recorded_endpoint: Plat (x10_4/uL)
# output: bare number, implied unit x10_4/uL

Request: Plat for Cc1nnc2n1-c1ccc(Cl)cc1C(c1ccccc1Cl)=NC2 [TRIAZOLAM] ?
Response: 117.2

Request: # lookup: Plat of COC(=O)C1=C(C)NC(C)=C(C(=O)OC)C1c1ccccc1[N+](=O)[O-] [NIFEDIPINE]
Response: 113.8

Request: For the molecule shown here, O=C(OC[C@H]1O[C@@H](OC(=O)c2cc(O)c(O)c(OC(=O)c3cc(O)c(O)c(O)c3)c2)[C@H](OC(=O)c2cc(O)c(O)c(OC(=O)c3cc(O)c(O)c(O)c3)c2)[C@@H](OC(=O)c2cc(O)c(O)c(OC(=O)c3cc(O)c(O)c(O)c3)c2)[C@@H]1OC(=O)c1cc(O)c(O)c(OC(=O)c2cc(O)c(O)c(O)c2)c1)c1cc(O)c(O)c(OC(=O)c2cc(O)c(O)c(O)c2)c1 [TANNIC ACID] , give the reported Plat.
Response: 129.4

Request: So what's the measured Plat for this one? CN/C(=N/CCSCc1nc[nH]c1C)NC#N [CIMETIDINE]
Response: 120.2

Request: Look up Plat for this molecule: CCOc1ccc(NC(C)=O)cc1 [PHENACETIN]
Response: 118.2

Request: Quick one: Plat for CNC(=C[N+](=O)[O-])NCCSCc1ccc(CN(C)C)o1 [RANITIDINE] ?
Response: 101

###

Would you kindly list IP for each of these molecules?
Species on record: Rattus norvegicus
Assay: Open TG-GATES - Regimen: Daily Repeat
Format: toxicity, organism-based, Sprague-Dawley
Design: regimen Daily Repeat, gender Male, age 6 weeks
Settings: in vivo, po, 300 mg/kg, […], tissue Plasma, route gavage, dose level Middle, time 14 day
Express your answer in mg/dL, writing the number without its unit.

Request: Record request: IP value, item "Cc1nnc2n1-c1ccc(Cl)cc1C(c1ccccc1Cl)=NC2"
Response: 7.2

Request: Give the measured IP of "CN/C(=N/CCSCc1nc[nH]c1C)NC#N" .
Response: 7.2

Request: I am curious: what IP value has been reported for "CNC(=C[N+](=O)[O-])NCCSCc1ccc(CN(C)C)o1" ?
Response: 7.1

Request: Which IP reading was recorded for the molecule "COC(=O)C1=C(C)NC(C)=C(C(=O)OC)C1c1ccccc1[N+](=O)[O-]" ?
Response: 7

Request: Field request: IP | item: "O=C(OC[C@H]1O[C@@H](OC(=O)c2cc(O)c(O)c(OC(=O)c3cc(O)c(O)c(O)c3)c2)[C@H](OC(=O)c2cc(O)c(O)c(OC(=O)c3cc(O)c(O)c(O)c3)c2)[C@@H](OC(=O)c2cc(O)c(O)c(OC(=O)c3cc(O)c(O)c(O)c3)c2)[C@@H]1OC(=O)c1cc(O)c(O)c(OC(=O)c2cc(O)c(O)c(O)c2)c1)c1cc(O)c(O)c(OC(=O)c2cc(O)c(O)c(O)c2)c1"
Response: 8.3

Request: Find the recorded IP belonging to "CCOc1ccc(NC(C)=O)cc1" and report it.
Response: 6.3
